- Tested on: SNB-75 CNS
- assay overview: NCI-60 one-dose screen, 48 h
- condition: 10 µM unless noted
The panel holds about 83,000 compounds, 20% with a hit somewhere; the sample as a whole holds those more often. Activity calls are given as the source filed them. Rule for the calls: active = growth percent below 10; inactive = the rest.
Outcome field: choose from active, inactive

### Prompt Check the results log: what was the call for COc1cc2c(cc1-c1c(C)noc1C)ncc1nc(C3CCOCC3)n([C@H](C)COC(F)F)c12 ?
### Response inactive

### Prompt Next: CC(C)(C)c1cc(/C=N\NC(=O)/C=C/C=C/c2ccc3c(c2)OCO3)c(O)c(C(C)(C)C)c1
### Response inactive

### Prompt Next: CN(C)S(=O)(=O)c1ccc(S(=O)(=O)Nc2cccc(Cl)c2N2CCCCC2)cc1
### Response inactive

### Prompt Next: C#CC(F)(F)[C@]1(O)CC[C@H]2[C@@H]3CCC4=CC(=O)CCC4=C3[C@@H](c3ccc(C4CC4)cc3)C[C@@]21C
### Response active

### Prompt Next: Cc1nn(-c2cc(=O)[nH]c3ccccc23)c(N)c1C#N
### Response inactive

### Prompt Next: O=C(COc1ccc(/C=C2\COc3ccccc3C2=O)cc1)Nc1nccs1
### Response inactive

### Prompt Next: Cc1ccc2c(C(C[N+](=O)[O-])c3ccco3)c(-c3ccccc3)[nH]c2c1 (stereo not drawn)
### Response active

### Prompt Next: CCCCC(=O)OCC1OC(n2cnc3c(=S)nc[nH]c32)C(OC(=O)CCCC)C1OC(=O)CCCC (stereo not drawn)
### Response inactive

### Prompt Next: CN(C)c1ccc(NC(=O)c2ccc(/C=C/C(=O)c3ncc[nH]3)cc2)cc1
### Response inactive

### Prompt Next: Cc1ccc(NC(=O)C2CCC(CN3CCN(C)CC3)CC2)cc1Nc1nccc(-c2cccnc2)n1 (stereo not drawn)
### Response inactive

### Prompt Next: O=c1nc2oc3ccc4ccccc4c3cc-2s1
### Response active

### Prompt Next: C=C1c2nc3ccccc3n2C=C(c2cccc(Cl)c2)N1Cc1ccc(OC)cc1
### Response inactive

### Prompt Next: O=C(Nc1ccccc1Cl)c1ccc(NC2=C(Cl)C(=O)N(C3CCCCC3)C2=O)cc1
### Response inactive
